assay: NCI Yeast Anticancer Drug Screen. Data for the mlh1 rad18 strain (AID 175); conditions: S. cerevisiae mlh1 rad18 strain growth inhibition; at 50.0 µM
This is part of a sample that, as a whole, favours compounds with a hit. Of some 79,000 tested, about 15% had one in any assay. Calls of active or inactive are those of the source. Cut-off read from the data, not from the text of the source: active = growth inhibition above about 70%; inactive = the rest.
Entry note: the call must match one of Y for active, N for inactive

>  <molecule>
O=C1C=CC(=O)N1c1ccccc1 (tested in a mixture with another compound)

>  <category>
Y

$$$$
>  <molecule>
O=C(O)c1cccc(S(=O)(=O)NN2C(=O)CSC2c2c(O)ccc3ccccc23)c1 (stereo unspecified)

>  <category>
Y

$$$$
>  <molecule>
COc1ccc(/C=C2\N=C(c3ccco3)OC2=O)cc1Br

>  <category>
N

$$$$
>  <molecule>
CCCCCCCCCCCCNCCNCCN

>  <category>
Y

$$$$
>  <molecule>
COc1cc(C(=O)C2OC2c2ccc(Cl)cc2)c([N+](=O)[O-])cc1OC (stereo unspecified)

>  <category>
N

$$$$

In: I'd appreciate the recorded outcome for `CCCCCC/C=C/C#CCCCCCCCC(=O)O` from this test.
Out: N

In: Dear colleague, could you share the recorded outcome for `Cc1cc(O)c(NCCN(C)C)c2c(=O)c3ccccc3sc12` when you have a moment?
Out: Y

====

Test: NCI Yeast Anticancer Drug Screen. Data for the cln2 rad14 strain (AID 165)
Conditions: S. cerevisiae cln2 rad14 strain, at 50.0 µM (retest, dose inferred, filed as 5.0)
Protocol: Growth inhibition of yeast strains with defined genetic alterations is measured as a screen for potential anti-cancer activity. Selected strains with alterations in DNA damage repair or cell cycle control were exposed to compounds and growth inhibition was measured relative to vehicle treated controls. The strain used in this assay is cln2 rad14
This is part of a sample that, as a whole, favours compounds with a hit. Of some 79,000 tested, about 15% had one in any assay. Active and inactive are the calls of the source. No stated cut-off is given here; in the data, active means growth inhibition above about 70%; inactive means the rest.
Choose the fitting class; nothing outside active, inactive is accepted.

Check out these entries, answers already filled in.
>  <compound>
COc1ccc2cc3c4cc(OC)c(OC)cc4ccn3c2c1

>  <category>
active

$$$$
>  <compound>
Cc1cccc(/C=N/NC(=S)Nc2ccccc2)n1

>  <category>
active

$$$$
>  <compound>
CCCCCCCCCCCCCCCCC#N

>  <category>
inactive

$$$$
>  <compound>
CCCCN(CCCC)CC(O)c1cc(-c2ccc(Cl)cc2)nc2c(Cl)cccc12 (stereo unspecified)

>  <category>
inactive

$$$$
>  <compound>
COC(=O)C1C2CC3c4[nH]c5cc(OC)c(Br)cc5c4CCN3CC2CC(OC(=O)c2cc(OC)c(OC)c(OC)c2)C1OC (stereo unspecified)

>  <category>
active

$$$$

In: Test call, this compound: `O=C(NC(OCc1ccccc1)(C(F)(F)F)C(F)(F)F)OCc1ccccc1`
Out: active

In: Outcome? `Cc1cc(O)c(C)c(C)c1N=Nc1ccccc1`
Out: inactive

In: Hi team, can someone confirm the assay call for `c1ccc(OCC2c3ccccc3Nc3ccccc32)cc1` ?
Out: active

In: Check the results log: what was the call for `CN(C)Cc1cc(C(C)(C)C)cc(C2CCCCC2)c1O` ?
Out: inactive

In: What outcome does the record of this test show for `O=[N+]([O-])c1ccc(NC(=S)N/N=C(\c2ccccc2)c2ccccn2)cc1` ?
Out: active

In: Give the logged outcome of this assay for the following compound: CCOC(=O)C(F)C(Br)C(=O)OCC (stereo unspecified)
Out: active
